Tested on: NCI-H460 lung
Select the correct class. Options are active, inactive and nothing else.

Per the assay record, what outcome was assigned to O=C(Nc1cccc([N+](=O)[O-])c1)c1cccc(C(=O)Nc2cccc([N+](=O)[O-])c2)c1 ?
inactive

New cases:
Per the assay record, what outcome was assigned to COc1nn(C)cc1Nc1nccc(-c2c[nH]c3c(NC(=O)[C@@H](C)N4CCN(C)CC4)cccc23)n1 ?
inactive

Can you handle CCN(CC)CCOc1nc2ccccc2c2c1-c1ccc(OC)cc1C2=O next?
active

Can you handle CC(=O)/C=C(/C)[O-].CC(=O)/C=C(/C)[O-].CC(=O)[CH-]C(C)=O.CC(=O)[CH-]C(C)=O.[Zr+4] next?
inactive

Can you handle COc1cc2c(cc1OCC(=O)Nc1ccc(Cl)cc1C(=O)c1ccccc1Cl)N=CC1CCCN1C2=O (stereo unspecified) next?
inactive

Can you handle COc1cc(C2c3cc4c(cc3[C@@H](NC3CCN(Cc5ccccc5)CC3)C3COC(=O)[C@H]23)OCO4)cc(OC)c1O (stereo partly specified) next?
active

Can you handle CC1Cc2c(Cl)ncnc2N(C)c2ccccc21 (stereo unspecified) next?
inactive

Can you handle Oc1c(C(c2ccc(F)cc2)N2CCCCC2)ccc2cncnc12 (stereo unspecified) next?
active

Can you handle CCOC(=O)N1CCC(N=C2CSc3nnc(-c4cc(C(F)(F)F)cc(C(F)(F)F)c4)n3N2)CC1 next?
inactive

Can you handle CCN1CCN(c2ccc(NC(=O)Nc3nc4ccc(-c5ccccc5OC)cc4s3)cc2)CC1 next?
inactive

Can you handle COc1c(C(N)=O)cc(-c2ccc(Cl)cc2)cc1-c1ccc(S(N)(=O)=O)cc1 next?
inactive

###

Tested on: SK-MEL-5 melanoma
test.name: NCI tumour cell line growth inhibition, 48 h
TGI values for the compounds below.

Some entries whose results are on file:
Provide value of TGI for this record tested with SK-MEL-5 melanoma: COC(=O)/C=C1\C(CO[Si](C)(C)C(C)(C)C)OC(n2cc(C)c(=O)n(C)c2=O)C1O[Si](C)(C)C(C)(C)C (centres undefined)
> 100 µM

Can you handle N#CCCN(CCCCN(CCC#N)C(=O)Nc1ccccc1)C(=O)Nc1ccccc1 next?
> 100 µM

Can you handle [N-]=[N+]=C(C(=O)CN1CCCC1=O)S(=O)(=O)c1ccccc1 next?
> 100 µM

Can you handle Cc1cc(N(CCC#N)S(=O)(=O)c2ccccc2)ccc1C=Nc1ccc(C(=O)O)cc1 next?
24.3 µM

Can you handle CCOP(=O)(OCC)/C(=C/n1c(=S)[nH]c2ccccc21)C(=O)OC next?
> 100 µM

Can you handle NC1(c2cc3ccccc3s2)CCCCCC1 next?
28.8 µM

Can you handle CC1(C)CC(=O)c2c(N)n[nH]c2C1 next?
> 100 µM

Can you handle COc1cc(C(c2ccccc2)N2C(=O)CC[C@H]2C(=O)O)cc(OC)c1OC (some centres undefined) next?
> 100 µM

Switching to the query record.
Provide value of TGI for this record tested with SK-MEL-5 melanoma: NC(=Nc1ccccc1)N/N=C/c1c[nH]c2ccccc12
1.85 µM

###

System: SK-OV-3 ovarian
test.name: NCI tumour cell line growth inhibition, 48 h
measurement.name: TGI

Some entries whose results are on file:
I am curious: what TGI value has been reported for CCCN=C1NC(C)=CSC(Nc2ccccc2)=C1C#N ?
> 100 µM

Can you handle COc1cc(C(c2ccccc2)N2C(=O)CC[C@H]2C(=O)O)cc(OC)c1OC (some centres not stated) next?
> 100 µM

Can you handle CC1(c2ccc(F)cc2)C2C(=O)NC(=O)C1C(=O)NC2=O (configuration not stated) next?
> 100 µM

Can you handle N=c1ncn(C/C=C/c2ccccc2)c2nc[nH]c12 next?
> 100 µM

Can you handle COc1cc(/C=C2\[C@@H]3NC(Cc4c(OC)c(C)c(OC)c(OC)c43)C(=O)N2Cc2ccccc2)c(OC)c(C)c1OC next?
> 100 µM

Can you handle CCOP(=O)(OCC)C(Nc1ccc(Cl)cc1)c1ccc(F)cc1 (configuration not stated) next?
> 100 µM

Can you handle N#Cc1sc2c(c1OC(=O)c1ccco1)c(=O)n(-c1ccccc1)c(=S)n2-c1ccccc1 next?
> 100 µM

Can you handle CC1(C)OCC2OC(n3cnc4c(N)nc(Cl)nc43)C(OS(C)(=O)=O)C2O1 (configuration not stated) next?
> 100 µM

Can you handle O=c1c2cccnc2oc2c(Cl)cc(-c3nn[nH]n3)cc12 next?
> 100 µM

Can you handle COC1(OC)CC(CO)(COc2cc(Cl)nc(N)n2)C1 next?
> 100 µM

New cases:
I am curious: what TGI value has been reported for COc1cc2nc(-c3cccs3)nc(Nc3ccccc3C(=O)NN)c2cc1OC ?
> 100 µM

Can you handle CCCCCCC(=O)NC1=C(N2CC2)C(=O)C(NC(=O)CCCCCC)=C(N2CC2)C1=O next?
> 100 µM

Can you handle Oc1c(C(c2ccc(F)cc2)N2CCCCC2)ccc2cncnc12 (configuration not stated) next?
38.8 µM

Can you handle Nc1nc2cc(Cl)ccc2n1N next?
> 100 µM

Can you handle CCCCCCCCCCCCCCNCC(OC)OC next?
33.1 µM

Can you handle CCOc1ccccc1N=NC1C(=O)N(C(=O)CC(=O)Nc2ccccc2C)N=C1C (configuration not stated) next?
56.1 µM

Can you handle COC(=O)C1=C(C)NC(C)=C(C(=O)OC)C1c1cccc(/[N+]([O-])=C/c2ccccc2)c1 next?
> 100 µM

Can you handle COc1nn(C)cc1Nc1nccc(-c2c[nH]c3c(NC(=O)[C@@H](C)N4CCN(C)CC4)cccc23)n1 next?
> 100 µM

###

Tested on: OVCAR-8 ovarian
test.name: NCI tumour cell line growth inhibition, 48 h
Where a SMILES comes first, the peptide text is derived from it. [ ]: non-standard residue; d: D form.
measurement.name: TGI

Some entries whose results are on file:
I am curious: what TGI value has been reported for CCN1CCN(c2ccc(NC(=O)Nc3nc4ccc(-c5ccccc5OC)cc4s3)cc2)CC1 ?
3.66 µM

Can you handle O=C1Sc2ccccc2C(=O)N2CCSC12 (stereo not given) next?
> 100 µM

Can you handle CCOP(=O)(OCC)/C(=C/n1c(=S)[nH]c2ccccc21)C(=O)OC next?
> 100 µM

Can you handle N#Cc1sc2c(c1OC(=O)c1ccco1)c(=O)n(-c1ccccc1)c(=S)n2-c1ccccc1 next?
> 100 µM

Can you handle CC1C(c2ccccc2)N(C)C(c2ccccc2)C(C)C1(O)c1ccccc1 (stereo not given) next?
> 100 µM

New cases:
I am curious: what TGI value has been reported for COC(=O)CC[C@@H](C)[C@H]1CC[C@H]2[C@@H]3CC[C@@H]4C[C@H](O)CC[C@]4(C)[C@H]3CC[C@]12C ?
38.2 µM

Can you handle Cc1cc(OCc2ccc(C(F)(F)F)cc2)c2c(c1)C(=O)C=C(NCCN1CCCC1)C2=O next?
12.1 µM

Can you handle COC(=O)C1=C(C)NC(=S)NC1c1ccc(N(CCCl)CCCl)cc1Cl (stereo not given) next?
> 100 µM

Can you handle CC(C)C[C@H](NC(=O)[C@H](CC(C)C)NC(=O)[C@@H](Cc1c[nH]c2ccccc12)NC(=O)[C@H](Cc1ccccc1)NC(=O)[C@@H](Cc1c[nH]c2ccccc12)NC(=O)[C@H](CCC(N)=O)NC(=O)[C@@H](CCC(N)=O)NC(=O)[C@@H]1CCCN1C(=O)[C@@H](CCCCN)NC(=O)[C@H]1CCCN1C(=O)[C@H](N)CCCN=C(N)N)C(N)=O (H-[dR][dP][dK]P[dQ]Q[dW]F[dW]LL-NH2) next?
> 100 µM

Can you handle C=CC1=C(C)C(/C=c2\[nH]/c(=C/c3[nH]c(CC4NC(=O)C(C)/C4=C\C)c(C)c3CCC(=O)O)c(CC(=O)O)c2C)=NC1=O (stereo not given) next?
> 100 µM

Can you handle CCN(CC)/N=C\c1c2ccccc2cc2ccccc12 next?
> 100 µM

Can you handle COC1(OC)CC(CO)(COc2cc(Cl)nc(N)n2)C1 next?
> 100 µM

Can you handle O=C1OC(OC/C(Br)=C(\Br)COC2OC(=O)C(Cl)=C2Cl)C(Cl)=C1Cl (stereo not given) next?
13.3 µM

Can you handle CC1CN(c2cc3c(cc2F)c(=O)c(C(=O)O)cn3-c2ccc(N3CCN(C)CC3)cn2)CC(C)N1 (stereo not given) next?
> 100 µM

Can you handle N=C(N)SCc1nc(-c2ccc(Cl)cc2)no1 next?
> 100 µM

###

Tested on: PC-3 prostate
test.name: NCI tumour cell line growth inhibition, 48 h
measurement.name: TGI

Some entries whose results are on file:
I am curious: what TGI value has been reported for NS(=O)(=O)c1ccc(-c2ccc([As](=O)(O)O)cc2)cc1 ?
> 100 µM

Can you handle C1=CC2C(C3CN(c4ccccc4)N=C13)C1C3C4C=CC21C=CC43 (centres undefined) next?
> 100 µM

Can you handle Cc1ccc(NC(=O)COc2ccc(Cl)cc2)cc1Cl next?
> 100 µM

Can you handle COC(=O)N[C@@H]1C[C@H]2CC[C@]1(O[Si](C(C)C)(C(C)C)C(C)C)C(=O)C2 next?
33.9 µM

Can you handle O=C1/C=C/[C@@H](O)[C@@H]2C[C@@H](O)C[C@H]2/C=C/CCC[C@H](CCO)O1 next?
> 100 µM

New cases:
I am curious: what TGI value has been reported for CC1=CC2(C)/C=C(C)/C=C\CC(O)/C=C3/C=CC(=C4C(=O)OC2(CC1C)C4=O)OC3 (centres undefined) ?
7.89 µM

Can you handle Clc1ccc2c(NC3CCC(N4CCCCC4)CC3)ccnc2c1 (centres undefined) next?
> 100 µM

Can you handle O=c1c(O)c(-c2ccccc2)oc2c(CP(=O)(O)O)cccc12 next?
> 100 µM

Can you handle CC(=O)C(CN1C(=O)c2ccccc2C1=O)C(C)=O next?
> 100 µM
